Tested on: Venezuelan equine encephalitis virus
Assay: microbe, parasite or virus in culture
pEC50: −log10 of the molar value.
readout type: pEC50

Briefly, pEC50 measured for CCN1CCN([C@@H](c2ccccc2)c2ccc(Cl)cc2)CC1 : ≤ 6.00

###

Tested on: Liver microsome
Assay: Metabolic stability in human liver microsomes assessed as half life by LC-MS/MS analysis in presence of NADPH
readout type: t1/2 (min)
One number for each entry, in min.

compound="NCCOCCOCCOCCOCCN1CCN(C(c2ccccc2)c2ccc(Cl)cc2)CC1 (racemic)" recorded_number=26.2

Could you tell me t1/2 for each of these compounds? They are listed below.
1. CN1CCN(C(c2ccccc2)c2ccc(Cl)cc2)CC1 (racemic) [CHLORCYCLIZINE]
2. NCCOCCN1CCN(C(c2ccccc2)c2ccc(Cl)cc2)CC1 (racemic)

-- reply
113
26.3

###

Assay: Cytotoxicity against human Huh7.5.1 cells assessed as ATP level by luminescence analysis
Conditions: huh-7
I'd be grateful if you could share measured CC50 for these entries.
Answers are plain numbers, in µM.

compound=[2H]C([2H])([2H])CN1CCN([C@@H](c2ccccc2)c2ccc(Cl)cc2)CC1 readout_unit=µM recorded_number=71.3
compound=CCCN1CCN([C@H](c2ccccc2)c2ccc(Cl)cc2)CC1 readout_unit=µM recorded_number=48.5
compound=COc1ccc(CN2CCN([C@@H](c3ccccc3)c3ccc(Cl)cc3)CC2)c(OC)c1 readout_unit=µM recorded_number=38.4

Could you tell me CC50 for each of these compounds? They are listed below.
1. CN1CCC(N(c2ccccc2)c2ccccc2)CC1
2. Clc1ccc([C@@H](c2ccccc2)N2CCNCC2)cc1
3. [2H]C([2H])([2H])CN1CCN([C@H](c2ccccc2)c2ccc(Cl)cc2)CC1

-- reply
56.8
12.5
81.5

Could you tell me CC50 for each of these compounds? They are listed below.
1. Clc1ccc([C@H](c2ccccc2)N2CCNCC2)cc1
2. [2H]C([2H])([2H])N1CCN([C@H](c2ccccc2)c2ccc(Cl)cc2)CC1
3. Clc1ccc(C(c2ccc(Cl)cc2)N2CCOCC2)cc1
4. CC(=O)N1CCN([C@@H](c2ccccc2)c2ccc(Cl)cc2)CC1
5. CN1CCCN(C(c2ccccc2)c2ccc(Cl)cc2)CC1 (racemic)
6. CCN1CCN(C2c3ccccc3-c3ccc(Br)cc32)CC1 (configuration not stated)
7. CC(C)(C)OC(=O)NCCOCCOCCOCCOCCN1CCN(C(c2ccccc2)c2ccc(Cl)cc2)CC1 (racemic)

-- reply
[9.31, 46.7, 62.1, 91.3, 12.8, 53.1, 19]

Could you tell me CC50 for each of these compounds? They are listed below.
1. Clc1ccc(C(c2ccccc2)N2CCNCC2)cc1 (racemic)
2. c1ccc(C(c2ccccc2)c2ccncc2)cc1

-- reply
1. 10.4
2. 65.1

###

Assay: Solubility of compound in phosphate buffer at pH 7.4
I'd be grateful if you could share measured solubility kinetic for these entries.

compound=Clc1ccc([C@H](c2ccccc2)N2CCNCC2)cc1 result="30.3 µg/mL"
compound=CCN1CCN([C@@H](c2ccccc2)c2ccc(Cl)cc2)CC1 result="12.3 µg/mL"
compound="NCCOCCN1CCN(C(c2ccccc2)c2ccc(Cl)cc2)CC1 (racemic)" result="44.3 µg/mL"
compound=CN1CCN([C@@H](c2ccccc2)c2ccc(Cl)cc2)CC1 result="29.3 µg/mL"
compound=CCN1CCN(C(c2ccc(Cl)cc2)c2ccc(Cl)cc2)CC1 result="17.7 µg/mL"
compound=CN1CCN(C(c2ccc(Cl)cc2)c2ccc(Cl)cc2)CC1 result="> 49 µg/mL"
compound="NCCOCCOCCOCCOCCN1CCN(C(c2ccccc2)c2ccc(Cl)cc2)CC1 (racemic)" result="46 µg/mL"

Briefly, solubility kinetic measured for OCCOCCN1CCN(C(c2ccc(Cl)cc2)c2ccc(Cl)cc2)CC1 : 44.5 µg/mL
